target: Mas-related G-protein coupled receptor member X1 (Homo sapiens); experiment: positive allosteric modulators of MrgX1, primary screen, HEK293 cells, Fluo-4 calcium flux (AID 588675); settings: MrgX1-HEK293, Fluo-4 calcium flux, FDSS, at 10 µM;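 note: compound read alongside a low EC10 to EC30 dose of BAM8-22 agonist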
The campaign covered roughly 310,000 compounds. About 1,900 (0.61%) were called active.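 Rule for the calls: active = plate-corrected calcium response at least 3 library SD above typical, normal starting fluorescence, not activating the receptor alone; inactive = the rest.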 What follows is part of a selection rich in actives, with near analogues and random picks from the rest.
Please state which outcome applies, choosing from label 1 for active, label 0 for inactive

These solved cases illustrate the format of a correct answer.
> print(dat)
                                   molecule                             tested.system  classification
1  CC1CCN(c2ccc(-c3ccc(NC(=O)c4ccco4)cc3)nn2)CC1  Mas-related G-protein coupled receptor member X1 (Homo sapiens)         label 0
2  Cn1c(-c2ccc(F)cc2)cc2onc(-c3ccccc3Cl)c2c1=O  Mas-related G-protein coupled receptor member X1 (Homo sapiens)         label 0

Ask: Recorded test call requested for COc1ccc(Nc2ncnc3ccc(Br)cc23)c(OC)c1
Result: label 0

Ask: Recorded test call requested for CC1(C)CC2CC(C)(CN2c2ncnc3ccc(Br)cc23)C1 (stereo not given)
Result: label 1

Ask: Recorded test call requested for CCOC(=O)Cc1csc(NC(=O)CN(C)S(=O)(=O)c2ccc3c(c2)CCC(=O)N3)n1
Result: label 0

Ask: Recorded test call requested for Cn1c(=O)c2c(nc(N/N=C/c3cccs3)n2Cc2ccc(Br)cc2)n(C)c1=O
Result: label 0

Ask: Recorded test call requested for CC(C)(C)NC(=O)CSc1nnc(NC(=O)CCc2ccccc2)s1
Result: label 0

Ask: Recorded test call requested for CC(C)(Oc1ccc(C2CC2(Cl)Cl)cc1)C(=O)O (stereo not given)
Result: label 0

Ask: Recorded test call requested for CCOC(=O)C1CCN(S(=O)(=O)c2ccc3c(c2)N(C)C(=O)CC(=O)N3C)CC1
Result: label 0

Ask: Recorded test call requested for O=C(Oc1ccc(-c2nnco2)cc1)c1ccc(F)c(S(=O)(=O)N2CCOCC2)c1
Result: label 0

* * *

target: Mas-related G-protein coupled receptor member X1 (Homo sapiens) (UniProt Q96LB2); experiment: positive allosteric modulators of MrgX1, primary screen, HEK293 cells, Fluo-4 calcium flux (AID 588675); settings: MrgX1-HEK293, Fluo-4 calcium flux, FDSS, at 10 µM;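 note: compound read alongside a low EC10 to EC30 dose of BAM8-22 agonist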
Sequence (Q96LB2 whole entry, looked up): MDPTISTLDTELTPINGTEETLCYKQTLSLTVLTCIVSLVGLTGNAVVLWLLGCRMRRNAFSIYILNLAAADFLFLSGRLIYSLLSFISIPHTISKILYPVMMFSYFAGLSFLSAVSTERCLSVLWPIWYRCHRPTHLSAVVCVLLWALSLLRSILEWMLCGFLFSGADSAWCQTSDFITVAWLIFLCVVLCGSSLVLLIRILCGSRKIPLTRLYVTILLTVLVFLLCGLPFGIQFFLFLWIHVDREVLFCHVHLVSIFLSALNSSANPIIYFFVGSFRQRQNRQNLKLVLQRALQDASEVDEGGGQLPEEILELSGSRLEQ
About 1,900 (0.61%) of roughly 310,000 compounds were called active.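 How the source made its calls: active means plate-corrected calcium response at least 3 library SD above typical, normal starting fluorescence, not activating the receptor alone; inactive means the rest.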 For the sample, actives were picked, then their nearest neighbours and some compounds at random.
Please state which outcome applies, choosing from class 1 (active), class 0 (inactive)

Ask: Recorded test call requested for CC(=O)N1N=C(c2ccccc2)OC1c1cccnc1 (stereo unspecified)
Result: class 0

Ask: Recorded test call requested for COc1ccc(C(=O)/C=C/c2ccc(-c3ccccc3)cc2)cc1CSCC(=O)O
Result: class 0

Ask: Recorded test call requested for CC(=O)N1N=C(c2ccncc2)OC1(Cc1ccccc1)Cc1ccccc1
Result: class 1

Ask: Recorded test call requested for CC(=O)c1ccc(N=C2SCCCN2C(=O)C2CCCCC2)cc1
Result: class 0

Ask: Recorded test call requested for O=C(Cc1ccccc1)N1N=C(c2ccncc2)CC1(O)C(F)(F)F (stereo unspecified)
Result: class 0

Ask: Recorded test call requested for COc1cc(S(=O)(=O)N(Cc2cccs2)C2CC2)ccc1-n1cnnn1
Result: class 0
